measured.target: T1, CDK4/cyclin D1 (as used in the binding assay) (UniProt P11802 1-303; P24385 1-295)
T1 construct: kept apart from the GST-tagged kinase-assay complex m2; also called CDK4/D1
T1 sequence (P11802 whole entry, chain 1 of 2): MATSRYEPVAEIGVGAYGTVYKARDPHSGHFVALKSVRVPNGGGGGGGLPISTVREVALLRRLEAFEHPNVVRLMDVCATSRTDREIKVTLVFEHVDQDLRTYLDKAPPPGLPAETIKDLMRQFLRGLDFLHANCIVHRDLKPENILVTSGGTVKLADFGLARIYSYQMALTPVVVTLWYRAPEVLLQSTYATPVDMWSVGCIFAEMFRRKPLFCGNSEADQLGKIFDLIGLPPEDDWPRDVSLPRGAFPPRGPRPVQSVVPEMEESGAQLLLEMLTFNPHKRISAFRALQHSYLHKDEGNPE
T1 sequence (P24385 whole entry, chain 2 of 2): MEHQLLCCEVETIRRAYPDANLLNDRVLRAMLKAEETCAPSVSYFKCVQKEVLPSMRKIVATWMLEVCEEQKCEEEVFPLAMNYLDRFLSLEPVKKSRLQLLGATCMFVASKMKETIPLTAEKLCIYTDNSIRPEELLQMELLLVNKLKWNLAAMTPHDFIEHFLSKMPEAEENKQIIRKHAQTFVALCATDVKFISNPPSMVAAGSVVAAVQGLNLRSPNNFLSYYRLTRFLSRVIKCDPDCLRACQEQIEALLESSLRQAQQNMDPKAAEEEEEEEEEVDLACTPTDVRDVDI
Non-standard residues stand in square brackets, D forms with d. No end group written: not given here. Cha = N[C@@H](CC1CCCCC1)C(=O)O
So basically, if IC50 comes in under 70 µM it's yes (1), and if it's 70 µM or more it's no (0).

Examples with answers:
| binder | group |
| --- | --- |
| HAKRRLI[Cha]-NH2 (not fully specified, also called HAKRRLIX6; HAKRRLI{CHA}) [HAKRRLIR6] | yes (1) |
| RKLIF (dimethyllysine at position 2 (lysine with the epsilon amino group methylated), also called SCCP 5918) [R(dimethyllys)LIF] | no (0) |
| RRLNF (pfF at position 5 = p-fluorophenylalanine; C-terminal amide, also called SCCP 540) [RRLNpfF] | yes (1) |
| XRLIF (Cit at position 1 = citrulline; C-terminal amide, also called SCCP 5812) [CitRLIF] | no (0) |

Continue with the next binder.
Task item: Please indicate whether the reported IC50 of RXLIF (Cit at position 2 = citrulline; C-terminal amide, also called SCCP 5831) [RCitLIF] is strictly below 70 µM.
Reply: yes (1)
